- Assay text: qHTS assay for small molecule antagonists of retinoid X receptor alpha signaling (AID 588546);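 also: cells stimulated with 9-cis-retinoic acid as agonist; % is scaled to controls: 0 for no effect and ±100 for the full control effect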
- Measurement conditions: HEK293T RXRa-UAS-bla, beta-lactamase ratio, antagonist mode; measured here: W530 green channel, cytotoxicity proxy
Results filed as inconclusive are left out.
Can you tell me max response for the items I'm about to list?
The reply should be a number in %, with the unit left off.

[in] So what's the measured max response for this one? "CC(=C/C=C/C(C)=C/C=C/C=C(C)/C=C/C=C(C)/C=C/C(=O)O)/C=C/C(=O)O"
[out] -2.63

[in] Continue with CC(C)(C)OCC1CO1 (stereo not drawn)
[out] -6.46

[in] Continue with "CCCCOCCOCCSC#N"
[out] -3.14

[in] Continue with "CC(C)C=O"
[out] -14.5

[in] Continue with "Cc1cc([N+](=O)[O-])ccc1N"
[out] -8.79

[in] Continue with CCCCCCCCCCCCC1CO1 (stereo not drawn)
[out] -6.03

[in] Continue with "Cc1ccc(C(C)(C)C)cc1"
[out] -11.6

[in] Continue with "OC1CCCC1"
[out] -8.22

[in] Continue with C/C=C1\CC2C=CC1C2 (stereo not drawn)
[out] -2.6

[in] Continue with "CCC(C)(C)OC"
[out] -18.1

[in] Continue with "O=[N+]([O-])c1cccc(C(F)(F)F)c1"
[out] -3.15

[in] Continue with "Clc1ccccn1"
[out] -9.05

[in] Continue with "ON=C1CCCCC1"
[out] 5.82

[in] Continue with "Cc1ccccc1C#N"
[out] -10.7

[in] Continue with "C1CCOC1"
[out] -8.68

[in] Continue with "Nc1ccc(F)cc1F"
[out] -8.47

[in] Continue with "Cc1cccc(C)c1O"
[out] 3.79

[in] Continue with "C=CCOC(=O)COCCC(C)C"
[out] -11.5

[in] Continue with "COc1cccc2sc(N)nc12"
[out] -11.1

[in] Continue with "Cc1ccc2ncccc2c1"
[out] -2.62

[in] Continue with "Cc1cccc([N+](=O)[O-])c1C(=O)O"
[out] -4.5

[in] Continue with "O=c1[nH][nH]c(=O)c2cc([N+](=O)[O-])ccc12"
[out] -8.03

[in] Continue with "NC(=S)NNC(N)=S"
[out] -7.09

[in] Continue with "O=Cc1ccc(Cl)cc1"
[out] -0.849

[in] Continue with "CC=O"
[out] -2.19

[in] Continue with "NC(=O)CCCCC(N)=O"
[out] -2.99

[in] Continue with "Nc1ccc(Cl)cc1[N+](=O)[O-]"
[out] -5.59

[in] Continue with "Cc1cccc(C(=O)O)c1"
[out] -2.27
